Quick reference for inhibition among some compounds
Assay Notes: TLR3 IRF3 reporter activation blockers – cell-based, poly I:C stimulus, luciferase, 10K MLSCN set, primary screen (AID 602277)
Run Parameters: HEK293-TLR3 RL24 IRF3 luciferase reporter, at 10 µM, hits give high values
State just the number; it will be interpreted in %.

>  <Compound>
O=C(COc1ccccc1Cl)OCC(=O)N1CCN(S(=O)(=O)c2ccccc2)CC1

>  <inhibition, %>
21

$$$$

Request: Could you share which inhibition value was measured for O=C(Nc1ccc(CN2CCCCC2)cc1)c1ccc2c(c1)OCO2 ?
Response: -5.01

Request: What would you report for CCn1c(=S)sc2nc(C)sc21 ?
Response: 15

Request: Next record, please: Nc1ncnc2nc(SCCN3CCCCC3)[nH]c12
Response: 10.9

Request: Now this one: COc1ccc2c(C(=O)CN(C)C3CCCCC3)c[nH]c2c1
Response: 39.7

Request: Check CCn1nnc(-c2ccccc2NC(=O)c2ccc(-n3cnnn3)cc2)n1 too.
Response: 15.5

Request: Then this compound: Cc1cc2oc(C(=O)NC3CCS(=O)(=O)C3)c(C)c2cc1C (centres undefined)
Response: -12

Request: Moving on to the next compound: Cc1ccccc1CN1CCNC1=O
Response: 26.8
